Test system: SF-295 CNS
Experiment: NCI-60 one-dose screen, 48 h (100 = growth as untreated, 0 = no growth, -100 = all killed)
Settings: 10 µM unless noted
The panel holds about 83,000 compounds, 20% with a hit somewhere; the sample as a whole holds those more often.
READOUT: growth (%)
One number for each entry, in %.

[
  {
    "COMPOUND": "Cc1cc2c(cc1C)Nc1sc(NC(=O)CN3CCN(C)CC3)nc1C(=O)N2",
    "UNIT INFO": "%",
    "ENDPOINT RESULT": 109
  },
  {
    "COMPOUND": "COc1cc2cn3c4ccc(O)cc4nc(N)c3c2cc1OC",
    "UNIT INFO": "%",
    "ENDPOINT RESULT": 9.44
  },
  {
    "COMPOUND": "Cc1ccc(C(O)C2=CC(=O)c3ccccc3C2=O)cc1 (centres undefined)",
    "UNIT INFO": "%",
    "ENDPOINT RESULT": 97.6
  },
  {
    "COMPOUND": "O=C(Nc1ccc(Cl)cc1)Nc1ccc(Oc2nncc3ccccc23)cc1",
    "UNIT INFO": "%",
    "ENDPOINT RESULT": 40.7
  },
  {
    "COMPOUND": "Clc1ccc(-n2cnc3c(Cl)ncnc32)cc1Cl",
    "UNIT INFO": "%",
    "ENDPOINT RESULT": 119
  },
  {
    "COMPOUND": "CCC1=C(c2ccc(OC)cc2)C(C)Oc2cc(OC(C)=O)ccc21 (centres undefined)",
    "UNIT INFO": "%",
    "ENDPOINT RESULT": 99.4
  },
  {
    "COMPOUND": "Cn1c(N)c(N=O)c(=O)[nH]c1=O",
    "UNIT INFO": "%",
    "ENDPOINT RESULT": 114
  },
  {
    "COMPOUND": "O=c1ccn(C2OC(CO)C(O)C2F)c(=O)[nH]1 (centres undefined)",
    "UNIT INFO": "%",
    "ENDPOINT RESULT": 105
  },
  {
    "COMPOUND": "COc1cc2c(cc1OC)C1CCN3C(=O)CCC3N1CC2 (centres undefined)",
    "UNIT INFO": "%",
    "ENDPOINT RESULT": 113
  },
  {
    "COMPOUND": "Clc1ncn[nH]1",
    "UNIT INFO": "%",
    "ENDPOINT RESULT": 78.6
  }
]

Each of the following entries comes with a recorded value; kindly state growth for each.
1. COc1cc2c(C#N)n3c(c2cc1OC)C(=O)C(c1ccccc1)Oc1ccccc1-3 (centres undefined)
2. COc1ccc(Cn2cc3c(c2-c2ccccc2)CCc2cncnc2-3)cc1
3. COC(=O)CCC1=C(C)C(C)=N/C1=C\c1[nH]c(-c2ccc[nH]2)cc1OC
4. COc1ccc(-c2nc3sccn3c2-c2ccnc(S(C)(=O)=O)n2)cc1
5. O=C(CCc1nnc2sc(-c3ccc(Cl)cc3Cl)nn12)c1nc2ccccc2[nH]1
6. CO[C@H]1CC(O[C@@H]2/C(C)=C/C[C@@H]3C[C@@H](C[C@]4(CC[C@H](C)[C@@H](C5CCCCC5)O4)O3)OC(=O)[C@@H]3C=C(C)/C(=N/O)[C@H]4OC/C(=C\C=C\[C@@H]2C)[C@]43O)O[C@@H](C)C1O (some centres undefined)

[28.4, 24.3, -44.6, 74.9, -37.4, -89.5]

Each of the following entries comes with a recorded value; kindly state growth for each.
1. CC(=O)O[C@H]1C(=O)[C@@]2(C)C([C@H](OC(=O)c3ccccc3)[C@]3(O)C[C@H](OC(=O)[C@H](O)[C@@H](NC(=O)c4ccccc4)c4ccccc4)C(C)=C1C3(C)C)[C@]1(OC(C)=O)CO[C@@H]1C[C@@H]2O (some centres undefined)
2. COc1ccc(C2CC(c3ccc(OC)c(OC)c3)=NN2C(=O)c2cc(OC)c(OC)c(OC)c2)c(OC)c1 (centres undefined)
3. CCC(CCC(C)C1CCC2C3CC=C4CC(O)CCC4(C)C3CCC12C)C(C)C (centres undefined) (tested in a mixture with another compound)

-8.51
31
76.9

* * *

Test system: A498 renal
Assay: NCI-60 one-dose screen, 48 h (100 = growth as untreated, 0 = no growth, -100 = all killed)
Settings: 10 µM unless noted
About 83,000 compounds went through this panel and 20% of them were active in at least one assay; those are over-represented in the sample as a whole.
READOUT: growth (%)
Numbers only, in %.

Recorded growth, per entry:
[
  {
    "TEST SMILES": "Cn1cc(-c2nc(-c3c[nH]c4ncc(F)cc34)cs2)c2cccnc21",
    "ENDPOINT RESULT": 109
  },
  {
    "TEST SMILES": "COc1ccc(-c2nc3sccn3c2-c2ccnc(S(C)(=O)=O)n2)cc1",
    "ENDPOINT RESULT": 120
  }
]

Each of the following entries comes with a recorded value; kindly state growth for each.
1. Nc1ccccc1-c1ccc([N+](=O)[O-])cc1
2. Nc1ccc(S(=O)(=O)Nc2ncccn2)cc1
3. COc1ccc(-c2cn(-c3ccccc3)c(-c3ccccc3)n2)cc1OC
4. CCOC(=O)c1c2c(c(C)n1Cc1ccccc1)-c1nc(N)ncc1CC2

1: 75.9; 2: 113; 3: 104; 4: 88.2

* * *

System: SNB-19 CNS
Assay: NCI-60 one-dose screen, 48 h
Details: 10 µM unless noted
This is part of a sample that, as a whole, favours compounds with a hit. Of some 83,000 tested, about 20% had one in any assay. Active and inactive are the calls of the source. Rule for the calls: active = growth percent below 10; inactive = the rest.
Answer with one of the outcomes given here: active, inactive

See these solved cases before continuing.
[
  {
    "COMPOUND": "CCN1C(=O)c2ccc3c4c(ccc(c24)C1=O)C(=O)N(CCCNCc1ccccc1OC)C3=O",
    "LABEL CLASS": "active"
  },
  {
    "COMPOUND": "Nc1ccc2c(c1)/C(=N/O)c1cc([N+](=O)[O-])ccc1-2",
    "LABEL CLASS": "inactive"
  },
  {
    "COMPOUND": "N#Cc1cnc2cc(OC[C@H](O)CO)c(NC(=O)CC3CSSC3)cc2c1Nc1ccc(OCc2cccc(F)c2)c(Cl)c1",
    "LABEL CLASS": "active"
  },
  {
    "COMPOUND": "O=C(CSc1nc2c(n1Nc1ccccc1)-c1ccccc1SC2)Nc1nc(-c2ccc(Cl)cc2)cs1",
    "LABEL CLASS": "inactive"
  },
  {
    "COMPOUND": "O=C1CC(C(F)(F)F)=NN1C(=O)c1nn(-c2ccc(Cl)cc2)cc1O",
    "LABEL CLASS": "inactive"
  },
  {
    "COMPOUND": "COC(=O)[C@]1(C(C)C)N[C@H](c2cn(-c3ccccc3)nc2-c2ccccc2)[C@@H]2C(=O)N(c3ccc(Cl)cc3)C(=O)[C@@H]21",
    "LABEL CLASS": "inactive"
  },
  {
    "COMPOUND": "C[C@@H]1CC[C@H]2[C@@H](C)C(O)O[C@@H]3O[C@]4(C)CC[C@@H]1[C@]32OO4 (stereo partly specified)",
    "LABEL CLASS": "inactive"
  },
  {
    "COMPOUND": "Cn1cnc([N+](=O)[O-])c1S(=O)(=O)Oc1ccc(Cl)cc1",
    "LABEL CLASS": "inactive"
  },
  {
    "COMPOUND": "O=C(NCCCO)c1cc(Cl)ccc1O",
    "LABEL CLASS": "inactive"
  },
  {
    "COMPOUND": "C[n+]1c2ccccc2c(NC2CCNCC2)c2[nH]c3ccccc3c21",
    "LABEL CLASS": "active"
  }
]

Which outcome did this test record for the compound `O=C1/C(=N/O)CCc2ccccc21` ? inactive

Which outcome did this test record for the compound `COc1ccc2c(c1)nc(N)c1c3cc(OC)c(OC)cc3cn21` ? inactive

Which outcome did this test record for the compound `COc1ccc2[nH]cc(/C=C3/C(=O)Nc4ccc(Cl)cc43)c2c1` ? inactive

Which outcome did this test record for the compound CCC(C)CC(C)C(=O)c1c(O)ccn(OC)c1=O (stereo unspecified) ? inactive

Which outcome did this test record for the compound `COc1ccc(-c2oc3cc(O)c(OC)c(O)c3c(=O)c2OC)cc1O` ? inactive

Which outcome did this test record for the compound CC(=O)c1nc2ccccc2n1CCn1cc(CC(N)C(=O)O)c2ccccc21 (stereo unspecified) ? inactive

Which outcome did this test record for the compound `Cc1c(C(N)=O)sc2ncn(Cc3ccccc3)c(=O)c12` ? inactive

Which outcome did this test record for the compound CCCCC(C#N)C(N)=O (stereo unspecified) ? inactive

Which outcome did this test record for the compound CCC(CCC(C)C1CCC2C3CC=C4CC(O)CCC4(C)C3CCC12C)C(C)C (stereo unspecified) (tested in a mixture with another compound) ? inactive

Which outcome did this test record for the compound CSc1nc2c(c(=O)n1C)C(c1ccccc1)C1=C(N2)/C(=C/c2ccccc2)CCC1 (stereo unspecified) ? inactive

Which outcome did this test record for the compound `S=c1[nH]nc2sc3ccccc3n12` ? inactive
